- Test system: SW-620 colon
- Test Summary: NCI tumour cell line growth inhibition, 48 h

Molecule	TGI
O=C(N/N=C\c1ccc([N+](=O)[O-])cc1)Nc1ccccc1	> 100 µM
COc1cccc2c3cccc(OC)c3c3[nH]cnc3c12	3.19 µM
CC(C)CC(=O)N1CCN(C(=O)CC(C)C)c2ccccc21	> 100 µM
c1ccc2c(c1)nnn1c3cnccc3nc21	> 100 µM
COC(=O)C1=C(C(=O)Nc2cccnc2)C2OC1(C(Cc1ccccc1)Oc1ccccc1)C1OC21 (stereo unspecified)	3.58 µM
CCN(CC)/[N+]([O-])=N/OC	> 100 µM
C/C(Sc1ccccc1)=C1/CCCN(Cc2ccccc2)C1	> 100 µM
O=C1OC(C2Cc3cc4c(cc3C2=O)CCC4)c2ccccc21 (stereo unspecified)	> 100 µM
Clc1ccc(-c2nc(-c3c[nH]c4ncccc34)cs2)cc1	> 100 µM
CCC(C)[C@H]1C(=O)N=C(N)N1C(=O)OCc1ccccc1 (stereo partly specified)	> 100 µM
Cc1cc(NC(=O)NC(=O)c2ccccc2[N+](=O)[O-])ccc1Oc1ncc(Cl)cn1	> 100 µM
